Data origin: patent US20220073604A1

Assay system: T1, bacterially produced human IL-6 (human, UniProt P05231 30-212)
T1 construct: also called bactIL-6; prokaryotic IL-6
Test method notes: SPR; purified Fab; IL-6 coated on CM5 chip;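 note: dissociation rate taken from the wash phase, association rate fitted over the injection phase with analyte concentration and dissociation rate as inputs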
Value type: Kd (nM)
Field: numeric (nM). Do not append units.

Fab 29B11 (Fab, V domains shown, Fab) VH: EVQLVESGGGLVQPGGSLRLSCAASGFTFSSYAMSWVRQAPGKGLEWVSRISSGGISTYYADSVKGRFTISRDNAKNTLYLQMNSLKPEDTAVYYCVRYAWGVQWAFDFWGQGTQVTVSS VL: QSVLTQPPSVSGSPGQTVTISCAGTSEDVGYGNYVSWYQQLPGMAPKLLIYDVNKRASGIADRFSGSKSGNTASLTISGLQSEDEADYYCASYRRTIDNIFGGGTHLTVLG; 0.93

Would you kindly look at the next entry?
## Input Returns the measured Kd for the input binder. Input: Fab 24E9 (Fab, V domains shown, Fab) VH: EVQLVESGGGLVQPGGSLRLSCAASGFTFSTYAMSWVRQAPGKGPEWVSRISSGGGSTNYADSVKGRFTISRDNAKKTLYLQMKSLKPEDTAVYYCANRAGWGMGDYWGQGTQVTVSS VL: QTVVTQEPSLSVSPGGTVTLTCGLSSGSVTASNYPGWFQQTPGQAPRALIYSTNDRHSGVPSRFSGSISGNKAALTITGAQPEDEADYYCALDIGDITEFGGGTHLTVLG
## Output 0.93
